- Tested on: OVCAR-8 ovarian
- Method Notes: NCI tumour cell line growth inhibition, 48 h
Endpoint Name: TGI

• COC1(OC)N=C(N)C2(C#N)C(C)CC(=O)N(N(C)C)C12C#N (stereo unspecified) = > 100 µM
• COc1cc(-c2oc3c(OC)c(OC)cc(O)c3c(=O)c2OC)ccc1O = > 50 µM
• CCOP(=O)(CC(=O)C1=C(O)C(CCCNC(=O)OC(C)(C)C)N(Cc2ccc(OC)c(OC)c2)C1=O)OCC (stereo unspecified) = > 100 µM
• CN(C)C(=O)CC(C(=O)O)c1c[nH]c2ccccc12 (stereo unspecified) = > 100 µM
• c1ccc2nc3[nH]c4ccccc4c3cc2c1 = 2.35 µM
• COc1ccc(C(=O)N2CCN(c3ccc4c(c3)OCC(=O)N4)CC2)cc1 = > 100 µM
• COc1cc(NN=C(c2ccc(O)cc2)c2ccc(O)cc2)c([N+](=O)[O-])cc1[N+](=O)[O-] = 27.5 µM
• CC1C=C(OC(=O)c2ccccc2)C(=O)C(n2cc(F)c(=O)n(C(=O)c3ccccc3)c2=O)O1 (stereo unspecified) = > 100 µM

Consider the compound O=C(O)c1c(CC(Cc2ccc3c(c2)CCCC3)C(=O)O)ccc2c1CCCC2 (stereo unspecified) and give its measured TGI.
> 100 µM

Given the compound O=C(O)Cc1ccc(N2N=C(c3ccccc3)CC2=O)cc1 , what is its reported TGI?
> 100 µM

TGI lookup needed for CN1CCN(c2ccc(-c3cnc4c(-c5csc6ccccc56)cnn4c3)cc2)CC1 , thanks.
> 15 µM
